Molecular target: Native human MIF (Homo sapiens)
Sequence (P14174 2-115 limits assumed): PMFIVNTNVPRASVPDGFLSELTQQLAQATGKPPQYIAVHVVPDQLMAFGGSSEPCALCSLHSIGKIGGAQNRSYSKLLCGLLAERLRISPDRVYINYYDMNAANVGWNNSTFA
# IC50 per entry
measured.attribute: IC50

INSERT INTO assay_data (smiles_structure, result) VALUES
  ('Cn1c(=O)c(C#N)c(N2CCC(C(=O)Nc3ccn[nH]3)CC2)c2ccccc21', '≤ 10 µM'),
  ('Cn1c(=O)c(C#N)c(N2CC(C(=O)c3cccs3)C2)c2ccccc21', '10 to 100 µM'),
  ('N#Cc1c(NC2CN(C(=O)c3ccncc3)C2)c2ccccc2n(Cc2ccc(F)cc2)c1=O', '≤ 10 µM'),
  ('Cn1c(=O)c(C#N)c(N2CCC(C(=O)NCc3ccncc3)CC2)c2ccccc21', '> 200 µM'),
  ('Cn1c(=O)c(C#N)c(N2CC(NC(=O)c3cccs3)C2)c2ccccc21', '10 to 100 µM'),
  ('Cn1c(=O)c(C#N)c(N2CCC(NC(=O)c3cccs3)CC2)c2ccccc21', '≤ 10 µM'),
  ('Cn1c(=O)c(C#N)c(N2CCC(C(=O)c3cccs3)CC2)c2ccccc21', '100 to 200 µM'),
  ('Cn1c(=O)c(C#N)c(NC2CCN(S(C)(=O)=O)CC2)c2ccccc21', '> 200 µM');
